target_or_test_system: intracellular domain of human Tie2 (GST fusion protein) (Homo sapiens)
Construct: intracellular domain of human Tie2 (amino acids 776-1124)
Sequence (Q02763 776-1124): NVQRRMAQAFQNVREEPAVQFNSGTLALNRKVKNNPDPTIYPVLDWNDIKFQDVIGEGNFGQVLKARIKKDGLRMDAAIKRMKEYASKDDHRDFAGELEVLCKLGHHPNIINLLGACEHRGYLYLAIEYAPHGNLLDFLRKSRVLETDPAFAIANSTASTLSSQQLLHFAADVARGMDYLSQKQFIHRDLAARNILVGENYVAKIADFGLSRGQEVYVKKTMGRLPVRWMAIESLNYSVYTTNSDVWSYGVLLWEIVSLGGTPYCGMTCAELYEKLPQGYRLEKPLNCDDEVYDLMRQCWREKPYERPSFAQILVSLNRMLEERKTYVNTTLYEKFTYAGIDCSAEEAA
procedure_summary: Tie2 kinase assay (Tie2-TR-FRET)
condition_info: ATP concentration 1 mM, in some cases means of several independent determinations
measure_name: IC50 (nM)
Respond with the bare value in nM.

Any idea what IC50 was measured for COCc1cc(C(=O)Nc2cc(-n3ccn4nc(-c5cccnc5)cc34)c(C)cc2C)cc(S(F)(F)(F)(F)F)c1 [Example 112] ? 0.7

So what's the measured IC50 for this one? Cc1ccc(NC(=O)c2cc(-n3ccnc3C)cc(S(F)(F)(F)(F)F)c2)cc1-n1ccn2nc(-c3cccnc3)cc12 [Example 16] 0.7

Reported IC50 for Cc1ccc(NC(=O)c2cc(CN3CCCC3)cc(C(C)(C)C)c2)cc1-n1ccn2nc(-c3cccnc3)cc12 [Example 51] : what is it? 0.7

Tell me the measured IC50 of Cc1ccc(NC(=O)c2cc(C#N)cc(S(F)(F)(F)(F)F)c2)cc1-n1cc(C)n2nc(-c3cn[nH]c3)cc12 [Example 12] , please. 0.7

Then there is this compound:
Report IC50 for COc1cc(C(=O)Nc2ccc(C)c(-n3cc(C)n4nc(-c5cn[nH]c5)cc34)c2)cc(S(F)(F)(F)(F)F)c1 [Example 13] please. 1.3

Just for reference, patent US20150005288A1 is where these values come from.
